assay-target: PGI2 receptor (Homo sapiens, UniProt P43119)
Construct: host or cells: thawed 'PGI2 cell' suspension
Sequence (P43119 whole entry, species assumed): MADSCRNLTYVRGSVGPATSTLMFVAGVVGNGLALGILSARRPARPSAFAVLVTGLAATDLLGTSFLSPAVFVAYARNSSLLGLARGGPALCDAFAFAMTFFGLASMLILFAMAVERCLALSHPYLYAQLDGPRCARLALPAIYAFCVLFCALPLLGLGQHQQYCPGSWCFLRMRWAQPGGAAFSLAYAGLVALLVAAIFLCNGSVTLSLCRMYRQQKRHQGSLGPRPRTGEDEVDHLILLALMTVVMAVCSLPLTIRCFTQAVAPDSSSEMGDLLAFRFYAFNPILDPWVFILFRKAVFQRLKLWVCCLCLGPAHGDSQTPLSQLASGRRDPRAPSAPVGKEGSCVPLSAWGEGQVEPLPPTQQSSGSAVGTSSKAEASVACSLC
assay: PGI2 cAMP cell assay in vitro (HTRF cAMP)
Assay type: cell-based
study-conditions: cells in vitro
Below, each entry is listed alongside its reported EC50.
API: value field is a number in nM; no unit string.

Example molecules with recorded EC50:
structure	assay-target	scale-unit	EC50
O=C(O)COCC1(F)CCN(c2cncc(N(c3ccccc3)c3cccc(F)n3)n2)CC1	PGI2 receptor (Homo sapiens, UniProt P43119)	nM	1.61
O=C(O)COCC1CCN(c2cncc(N(c3ccccc3)c3cccc(F)c3)n2)CC1	PGI2 receptor (Homo sapiens, UniProt P43119)	nM	12.8
O=C(O)COCC1CCN(c2cncc(N(c3ccccc3)c3ccccc3)n2)CC1	PGI2 receptor (Homo sapiens, UniProt P43119)	nM	2.99
COC(c1ccccc1)(c1ccccc1)c1cncc(N2CCC(F)(COCC(=O)O)CC2)n1	PGI2 receptor (Homo sapiens, UniProt P43119)	nM	322
O=C(O)COCC1(F)CCN(c2cncc(N(c3ccccc3)c3ccc(OC(F)(F)F)cc3)n2)CC1	PGI2 receptor (Homo sapiens, UniProt P43119)	nM	3.73

Exam item: Item O=C(O)COCC1(F)CCN(c2cncc(N(c3ccc(F)cc3)c3ccccn3)n2)CC1 has what recorded EC50?
Marked response: 3.2

Exam item: Item CS(=O)(=O)NC(=O)COCC1(F)CCN(c2cncc(N(c3ccccc3)c3ccc(F)cc3)n2)CC1 has what recorded EC50?
Marked response: 4.97

Exam item: Item COc1ccc(N(c2ccccn2)c2cncc(N3CCC(F)(COCC(=O)O)CC3)n2)cc1 has what recorded EC50?
Marked response: 2.63
